Target: recombinant human MAO-A (monoamine oxidase-A) (Homo sapiens, UniProt P21397)
Construct: purchased Sigma-Aldrich
Sequence (P21397 1-527): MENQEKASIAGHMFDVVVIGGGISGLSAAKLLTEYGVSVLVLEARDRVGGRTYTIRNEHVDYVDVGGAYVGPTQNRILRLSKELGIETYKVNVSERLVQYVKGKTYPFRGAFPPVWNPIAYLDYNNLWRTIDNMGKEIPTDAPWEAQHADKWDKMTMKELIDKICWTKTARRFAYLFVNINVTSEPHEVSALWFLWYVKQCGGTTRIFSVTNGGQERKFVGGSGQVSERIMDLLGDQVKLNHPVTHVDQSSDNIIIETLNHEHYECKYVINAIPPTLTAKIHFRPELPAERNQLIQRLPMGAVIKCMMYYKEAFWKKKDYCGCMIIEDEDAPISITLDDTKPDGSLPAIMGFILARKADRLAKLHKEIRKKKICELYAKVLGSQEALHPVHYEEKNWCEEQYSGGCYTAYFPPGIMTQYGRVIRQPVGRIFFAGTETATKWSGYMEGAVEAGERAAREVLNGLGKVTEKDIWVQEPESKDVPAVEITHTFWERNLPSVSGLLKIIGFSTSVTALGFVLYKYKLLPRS
Test: Amplex Red HRP-coupled amine oxidase assay, recombinant human MAO-A
Assay type: biochemical
Details: 0.5 mM tyramine substrate, read-out: Inhibitory activity (IC50, nM) MAO-A
Structures can show the parent of a compound that is named as a salt.
experimental endpoint: IC50

compound	measured target	experimental endpoint	measured result
CNS(=O)(=O)c1cccc(-c2cccc3c2nc(C(F)(F)F)n3C/C(F)=C/CN)c1 [Example 53, hydrochloride]	recombinant human MAO-A (monoamine oxidase-A) (Homo sapiens, UniProt P21397)	IC50	> 100000 nM
CS(=O)(=O)c1cccc(-c2cc(C(F)(F)F)cc3c2ncn3C/C(F)=C/CN)c1 [Example 13, hydrochloride]	recombinant human MAO-A (monoamine oxidase-A) (Homo sapiens, UniProt P21397)	IC50	> 100000 nM
CNS(=O)(=O)c1ccc(OC)c(-c2cc(C#N)cc3c2ncn3C/C(F)=C/CN)c1 [Example 183, hydrochloride]	recombinant human MAO-A (monoamine oxidase-A) (Homo sapiens, UniProt P21397)	IC50	> 100000 nM
Cc1nc2c(-c3cccc(S(=O)(=O)N4CCCC4)c3)cccc2n1C/C(F)=C/CN [Example 60, hydrochloride]	recombinant human MAO-A (monoamine oxidase-A) (Homo sapiens, UniProt P21397)	IC50	64200 nM
CC(=O)c1ccc(F)c(-c2cc(C#N)cc3c2ncn3C/C(F)=C/CN)c1 [Example 184, hydrochloride]	recombinant human MAO-A (monoamine oxidase-A) (Homo sapiens, UniProt P21397)	IC50	> 100000 nM
CNS(=O)(=O)c1ccc(OC)c(-c2cc(C(=O)OC)cc3c2nnn3C/C(F)=C/CN)c1 [Example 117, hydrochloride]	recombinant human MAO-A (monoamine oxidase-A) (Homo sapiens, UniProt P21397)	IC50	> 100000 nM

----------
Target: recombinant human DAO (diamine oxidase) (Homo sapiens)
Construct: purchased R&D systems
Sequence (P19801 20-751): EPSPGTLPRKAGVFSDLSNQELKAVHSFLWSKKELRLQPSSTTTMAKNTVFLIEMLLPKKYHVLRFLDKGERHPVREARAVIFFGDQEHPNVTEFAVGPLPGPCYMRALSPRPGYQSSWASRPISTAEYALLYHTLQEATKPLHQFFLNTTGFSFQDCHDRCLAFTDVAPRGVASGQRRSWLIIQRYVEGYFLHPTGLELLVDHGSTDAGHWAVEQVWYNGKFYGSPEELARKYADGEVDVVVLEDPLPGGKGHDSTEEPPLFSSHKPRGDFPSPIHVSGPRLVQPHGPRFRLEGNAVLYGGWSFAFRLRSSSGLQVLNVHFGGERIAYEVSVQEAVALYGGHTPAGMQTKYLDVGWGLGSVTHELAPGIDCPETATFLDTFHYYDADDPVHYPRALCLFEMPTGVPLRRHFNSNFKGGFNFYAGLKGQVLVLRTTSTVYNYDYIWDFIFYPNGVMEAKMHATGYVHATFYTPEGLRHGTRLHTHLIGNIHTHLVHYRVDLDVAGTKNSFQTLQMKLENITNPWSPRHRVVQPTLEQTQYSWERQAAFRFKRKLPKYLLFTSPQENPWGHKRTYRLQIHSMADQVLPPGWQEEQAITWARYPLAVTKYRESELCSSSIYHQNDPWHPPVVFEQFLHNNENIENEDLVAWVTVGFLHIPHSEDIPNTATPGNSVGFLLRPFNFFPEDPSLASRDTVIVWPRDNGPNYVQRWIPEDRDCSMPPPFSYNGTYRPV
Assay: Amplex Red HRP-coupled amine oxidase assay, recombinant human DAO
Type: biochemical
Settings: 1 mM putrescine substrate, read-out: Inhibitory activity (IC50, nM) DAO
Structures can show the parent of a compound that is named as a salt.
Categories are defined by ranges of IC50, namely low range (below 2000 nM), mid range (2000 nM to below 20000 nM), high range (20000 nM or more)

molecule	category label
CNS(=O)(=O)c1cccc(-c2cc(F)cc3c2ncn3C/C(F)=C/CN)c1 [Example 10, hydrochloride]	mid range
CNS(=O)(=O)c1ccc(OC)c(-c2cccc3c2nnn3C/C(F)=C/CN)c1 [Example 105, hydrochloride]	high range
CNS(=O)(=O)c1ccc(OC)c(-c2cc(C(=O)OC)cc3c2ncn3C/C(F)=C/CN)c1 [Example 24, hydrochloride]	high range
COC(=O)c1cc(-c2cccc(S(C)(=O)=O)c2)c2ncn(C/C(F)=C/CN)c2c1 [Example 25, hydrochloride]	low range
COC(=O)c1cc(-c2cccc(S(C)(=O)=O)c2)c2nc(C)n(C/C(F)=C/CN)c2c1 [Example 67, hydrochloride]	low range
Cn1nccc1-c1cc(C#N)cc2c1nnn2C/C(F)=C/CN [Example 211, hydrochloride]	low range
CS(=O)(=O)c1cccc(-c2cc(C(F)(F)F)cc3c2ncn3C/C(F)=C/CN)c1 [Example 13, hydrochloride]	high range
CNS(=O)(=O)c1cccc(-c2cc(C(=O)OC)cc3c2ncn3C/C(F)=C/CN)c1 [Example 30, hydrochloride]	mid range
COc1ccc(-c2cccc3c2nnn3C/C(F)=C/CN)cc1S(=O)(=O)N(C)C [Example 102, hydrochloride]	high range
COC(=O)c1cc(-c2cc(S(=O)(=O)NC3CC3)ccc2OC)c2ncn(C/C(F)=C/CN)c2c1 [Example 27, hydrochloride]	mid range
NC/C=C(\F)Cn1cnc2c(-c3cncc(F)c3)cc(C(F)(F)F)cc21 [Example 173, hydrochloride]	mid range
COC(=O)c1cc(-c2cccc(S(=O)(=O)N3CCCC3)c2)c2ncn(C/C(F)=C/CN)c2c1 [Example 23, hydrochloride]	low range
COC(=O)c1cc(-c2cccc(S(=O)(=O)N3CCCC3)c2)c2nc(C)n(C/C(F)=C/CN)c2c1 [Example 70, hydrochloride]	mid range
CNS(=O)(=O)c1cccc(-c2cccc3c2nc(C(F)(F)F)n3C/C(F)=C/CN)c1 [Example 53, hydrochloride]	high range

----------
Listed here: items and their measured IC50.
Biological target: recombinant human MAO-A (monoamine oxidase-A) (Homo sapiens)
Construct: purchased Sigma-Aldrich
Sequence (P21397 1-527): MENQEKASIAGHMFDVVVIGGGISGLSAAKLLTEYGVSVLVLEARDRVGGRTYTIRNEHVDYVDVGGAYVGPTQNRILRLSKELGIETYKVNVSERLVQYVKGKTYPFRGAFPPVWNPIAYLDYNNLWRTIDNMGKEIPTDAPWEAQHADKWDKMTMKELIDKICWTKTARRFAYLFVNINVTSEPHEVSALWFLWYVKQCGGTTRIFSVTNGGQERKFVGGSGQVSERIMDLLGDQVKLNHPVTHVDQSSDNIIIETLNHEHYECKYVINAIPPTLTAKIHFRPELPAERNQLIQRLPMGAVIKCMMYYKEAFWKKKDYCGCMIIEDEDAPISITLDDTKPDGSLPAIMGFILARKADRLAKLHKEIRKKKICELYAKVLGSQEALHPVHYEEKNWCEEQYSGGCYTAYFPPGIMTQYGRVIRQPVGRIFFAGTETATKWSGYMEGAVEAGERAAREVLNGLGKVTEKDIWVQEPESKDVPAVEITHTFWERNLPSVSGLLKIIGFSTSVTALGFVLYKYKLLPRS
Assay: Amplex Red HRP-coupled amine oxidase assay, recombinant human MAO-A
Type: biochemical
Details: 0.5 mM tyramine substrate, read-out: Inhibitory activity (IC50, nM) MAO-A
Counter-ions that a name gives are not always drawn.
experimental endpoint: IC50

compound	measured result
Cn1nccc1-c1cc(C(F)(F)F)cc2c1ncn2C/C(F)=C/CN [Example 176, hydrochloride]	> 100000 nM
CNS(=O)(=O)c1cccc(-c2cc(C(F)(F)F)cc3c2ncn3C/C(F)=C/CN)c1 [Example 20, hydrochloride]	> 100000 nM
N#Cc1cc(-c2cccc(S(=O)(=O)N3CCCC3)c2)c2ncn(C/C(F)=C/CN)c2c1 [Example 181, hydrochloride]	> 100000 nM

Origin of measurements: patent US12686665B2
